- EXPERIMENTAL_TARGET: corticotropin releasing factor 1 receptor
- ASSAY_OVERVIEW: cell-based or functional assay
Ends that are not written are not given here.
Listing of recorded CRF1R Emax % by entry.
EXPERIMENTAL_READOUT: CRF1R Emax % (%)

[
  {
    "BINDER": "DNPSLSIDLPLILLRTLLELEKTQSQRERAEQNAIIFASV-NH2 [SEQ ID NO 345]",
    "NUMBER": 18.8
  },
  {
    "BINDER": "ZGPPISIDVPIYLLRKVIEIEKQEKEKQQAANNARLLARI (C-terminal amide) [SEQ ID NO 379]",
    "NUMBER": 8
  },
  {
    "BINDER": "NDDPPISIDLPLFLLRNMIEMARIENEREQAGLNAKYLAEV-NH2 [SEQ ID NO 257]",
    "NUMBER": 83.5
  },
  {
    "BINDER": "ZGPPISIDVPLQLLRKVIEIEKQEKEKQQAANNARLLARI (C-terminal amide) [SEQ ID NO 381]",
    "NUMBER": 27
  },
  {
    "BINDER": "DNPSLSIDLPLQLLRTLLELEKTQSQRERAEQNAIIFASV-NH2 [SEQ ID NO 342]",
    "NUMBER": 19.6
  },
  {
    "BINDER": "ZGPPISIDLPQILLRKVIEIEKQEKEKQQAANNALLLATI (C-terminal amide) [SEQ ID NO 299]",
    "NUMBER": 10.2
  },
  {
    "BINDER": "DNPSLSIDLPLILLRTLLELEKTQSQRERAEQNARIFDRV-NH2 [SEQ ID NO 337]",
    "NUMBER": 36.5
  },
  {
    "BINDER": "HHHHHHIVLSLDVPIGLLQILLEQARARAAREQATTNARILARN-NH2 [SEQ ID NO 296]",
    "NUMBER": 4
  },
  {
    "BINDER": "ZGPPISIDLPLHLLRKMIEIEKQEKEKQQATTNARLLDTV (C-terminal amide) [SEQ ID NO 238]",
    "NUMBER": 88
  },
  {
    "BINDER": "ZGPPISIDLPHFLLRKMIEIEKQEKEKQQAANNRLLLDTI (C-terminal amide) [SEQ ID NO 219]",
    "NUMBER": 100
  },
  {
    "BINDER": "ZGPPISIDLPFQLLRKLIEIEKQEKEKQQAANNALLLATI (C-terminal amide) [SEQ ID NO 357]",
    "NUMBER": 100
  },
  {
    "BINDER": "ZGPPISIDVPTYLLRKMIEIEKQEKEKQQAANNRLLLDTI (C-terminal amide) [SEQ ID NO 253]",
    "NUMBER": 42
  },
  {
    "BINDER": "ZGPPISIDLPIFLLRKVIEIEKQEKEKQQAANNARLLARI (C-terminal amide) [SEQ ID NO 281]",
    "NUMBER": 12.2
  },
  {
    "BINDER": "ZGPPISIDLPFQLLRKVIEIEKQEKEKQQAANNARLLARI (C-terminal amide) [SEQ ID NO 279]",
    "NUMBER": 93
  }
]
